- method: growth modulation of vineyard yeast isolate – strain RM11-1a, OD600, basal, 24 h, primary screen (AID 1177);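 also: cultures grown under basal conditions with no added stressor; test concentration not given here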
- condition.parameters: S. cerevisiae RM11-1a growth, OD600, 24 h; higher = more signal, called active from +8 up or from −8 down
Note to self: class labels come from recorded z-score, ranges listed here: lower level = under 0.3, middle level = from 0.3 up to 0.9, upper level = 0.9 and over

Asked: Please classify: CN(C)CCCNC(=O)[C@@]1(Cc2ccccc2I)c2ccccc2C(=O)N(C2CCCCC2)[C@H]1c1ccc(CO)cc1
Given back: upper level

Asked: Another molecule to look at: COc1ccc([Si](C)(C)[C@@H]2[C@@H](CC(=O)N3Cc4ccccc4C[C@H]3CO)O[C@]3(C(=O)N(Cc4ccc(N5CCOC5=O)cc4)c4ccccc43)[C@H]2C)cc1
Given back: middle level

Asked: Cool, now Cc1ccc(S[C@]2(C(=O)NCc3ccccc3)CC(=O)N(Cc3ccccc3C(F)(F)F)[C@@H]2c2ccc(CO)cc2)cc1
Given back: lower level

Asked: Same question, C=C(COC)/C(=C/C[C@@H](OC(C)=O)c1ccccc1OCCO)c1cnc2ccccc2c1 this time
Given back: middle level

Asked: Now the molecule CCOC(=O)c1cn(C[C@H](Cc2ccccc2)NC(=O)N[C@H](CO)CCc2oc(C(C)=O)c(C(=O)OC)c2C(=O)OC)nn1
Given back: lower level

Asked: Lookup CC(C)N1C(=O)c2ccccc2[C@@H](C(=O)NCC(F)(F)F)[C@@H]1c1ccc(CO)cc1
Given back: middle level

Asked: Another molecule: COC(=O)C(CC#Cc1ccc2c(c1)[C@]1(C(=O)N2)[C@H](c2ccccc2OCCO)N2[C@H](c3ccccc3)[C@H](c3ccccc3)OC(=O)[C@H]2[C@@H]1C(=O)N1CCc2cc(OC)c(OC)cc2C1)C(=O)OC
Given back: upper level

Asked: Please answer likewise for O=C1[C@H]2C=C(I)[C@H](C[C@@H]2c2ccccc2)[C@@]12CO2
Given back: lower level

Asked: What do we get for CCCCC(O)C1C=CC2C(=O)N(c3ccccc3)C(=O)C2N1Nc1ccc(C#N)cc1 (stereo not given) ?
Given back: middle level

Asked: Please answer likewise for COCCn1c(C(=O)N(C)C)cc2c1C[C@H]1CN(C(=O)c3ccccc3)[C@@](Cc3ccc(OC)cc3)(C(=O)OC)[C@@H]21
Given back: upper level

Asked: Can you handle COc1ccc(C(O)C2C=CC3C(=O)N(C)C(=O)C3N2N(c2ccccc2)c2ccccc2)cc1 (stereo not given) next?
Given back: lower level

Asked: Now try [N-]=[N+]=Nc1ccccc1C[C@]1(C(=O)N2CCOCC2)N=C(c2ccc(OCCCO)cc2)O[C@H]1c1ccccc1N=[N+]=[N-] .
Given back: lower level

Asked: Also check CN(C)CCCC[C@@H]1NC(=O)[C@@H]2C[C@H](C(=O)NCCCCCCNC(=O)CS)[C@H](c3ccc(O)cc3)N2C1=O
Given back: lower level
